Reference source for all entries: patent US20220017630A1

- TARGET SYSTEM: T1, Human TNFR2 recombinant protein (Sino 10417-H08H) (human, UniProt P20333 23-257)
- T1 construct: also called hTNFR2 (His tag)
- T1 sequence (looked up): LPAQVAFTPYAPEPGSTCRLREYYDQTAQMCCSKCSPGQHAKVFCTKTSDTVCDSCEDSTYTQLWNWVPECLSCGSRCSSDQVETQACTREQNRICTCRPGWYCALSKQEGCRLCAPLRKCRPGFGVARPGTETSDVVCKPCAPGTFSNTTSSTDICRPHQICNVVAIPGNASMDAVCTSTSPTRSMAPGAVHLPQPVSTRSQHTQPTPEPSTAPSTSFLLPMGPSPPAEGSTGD
- ASSAY NAME: SPR Biacore, antibody on Protein A chip, TNFR2 analyte
Recorded kon by entry
Express the result in M⁻¹ s⁻¹ but write the number alone.

BINDER | ATTRIBUTE MEASURED | DATA VALUE
TNFR2 antibody #125 (antibody, V domains shown) VH: EVQLQESGGGLVQPGGSLNLSCAASGFAFSIYDLSWVRQTPEKRLEWVAYINNGGISTYYSDTVKGRFTISRDNAKNTLYLQMSSLKSEDTAMYYCVRGPFYGSANYFDYWGQGTTVTVSS VL: DIQMTQSPASLSLSVGETVTITCRASENIYSNLAWYQQKQGKSPQLLVYDATKLAEGVPSRFSGSESGTQYSLKINSLQSEDFGTYYCQHFWVTPWTFGGGTKLEIK | kon | 817000
TNFR2 antibody #224 (antibody, V domains shown) VH: EVQLQESGPEIVKPGASVKLSCTASGFNNKDIYMHWVKQRPEQGLEWIGRIDPATGNTKHDPKFQDKATLSSDTSSNTAYLQFSSLTSEDTAVYYCAHSPYGDFGAMDYWGQGTTVTVSS VL: DIQMTQSPAIMSASLGERVTMTCTASSSVSSNYLHWYQQKPGSSPKLWIYSTSNLPSGVPARFSGSGSGTSYSLTISSMEAEDAATYYCHQYHRSPWTFGGGTKLEIK | kon | 233000

The record that follows has no kon shown yet.
Problem: Please give measured kon of the following entry: TNFR2 antibody #001 (antibody, V domains shown, also called antibody #1) VH: EVQLQESGGGLVQPGGSLNLSCAASGFAFSTYDLSWVRQTPEKRLEWVAYINNGGISTYYSDTVKGRFTISRDNAKNTLYLQMSSLKSEDTAMYYCVRGPFYGSANYFDYWGQGTTVTVSS VL: EIVMTQSPASLSLSVGETVTITCRTSESIYSNLPWYQQKQGKSPQLLVYDATKLAEGVPSRFSGSESGTQYSLKINSLQSEDFGTYYCQHFWVTPWTFGGGTKLEIK
Solution: 556000
